Origin of values: PubChem BioAssay AID1117319

Subject of test: Virion infectivity factor (Human immunodeficiency virus type 1 group M subtype B (isolate BH10)) + Virion infectivity factor (Human immunodeficiency virus type 1 group M subtype B (isolate BRU/LAI)) + Virion infectivity factor (Human immunodeficiency virus type 1 group M subtype B (isolate PCV12)) + Virion infectivity factor (Human immunodeficiency virus type 1 group M subtype B (isolate HXB2)) + DNA dC->dU-editing enzyme APOBEC-3G (Homo sapiens) (UniProt P69720+P69721+P69722+P69723+Q9HC16)
Test description: inhibitors of Vif binding to APOBEC3G peptide, primary screen, biochemical, TR-FRET, GST-Vif 1-94, biotin-A3G peptide, dose response retest (AID 1117319);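 further: Vif residues 1-94 fused to GST binding biotinylated APOBEC3G peptide 110-148; 0% = full assay without inhibitor and 100% = GST in place of GST-Vif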
Applied conditions: stronger effect = higher value
About 1,500 (0.58%) of roughly 260,000 compounds were called active. Inconclusive results (about 5%) are left out. Not all results are given here. Entries with a potency or affinity are not part of this list.
Experimental readout: inhibition (%)
Value expressed in %; do not type the unit.

Here are 2 compounds together with their reported answers.
Asked: Check the records and state inhibition for `COc1ccc(NC(=O)C[C@H]2C(=O)N(Cc3cccnc3)C[C@@H]2Cc2ccccc2)cc1`
Given back: -1.58

Asked: Check the records and state inhibition for `O=C(NCc1ccccn1)C(=O)NCc1ccccn1`
Given back: 5.11

Turning now to a further record.
Asked: Check the records and state inhibition for `NS(=O)(=O)c1ccc(N/N=C/c2ccc(O)cc2O)c([N+](=O)[O-])c1`
Given back: -13.8
